Kindly supply the reported IC50 values for the records listed here.
# system: human Nav1.7 (Homo sapiens (Human))
# Sequence (Q15858 other isoform, or with tags, fused parts or gaps): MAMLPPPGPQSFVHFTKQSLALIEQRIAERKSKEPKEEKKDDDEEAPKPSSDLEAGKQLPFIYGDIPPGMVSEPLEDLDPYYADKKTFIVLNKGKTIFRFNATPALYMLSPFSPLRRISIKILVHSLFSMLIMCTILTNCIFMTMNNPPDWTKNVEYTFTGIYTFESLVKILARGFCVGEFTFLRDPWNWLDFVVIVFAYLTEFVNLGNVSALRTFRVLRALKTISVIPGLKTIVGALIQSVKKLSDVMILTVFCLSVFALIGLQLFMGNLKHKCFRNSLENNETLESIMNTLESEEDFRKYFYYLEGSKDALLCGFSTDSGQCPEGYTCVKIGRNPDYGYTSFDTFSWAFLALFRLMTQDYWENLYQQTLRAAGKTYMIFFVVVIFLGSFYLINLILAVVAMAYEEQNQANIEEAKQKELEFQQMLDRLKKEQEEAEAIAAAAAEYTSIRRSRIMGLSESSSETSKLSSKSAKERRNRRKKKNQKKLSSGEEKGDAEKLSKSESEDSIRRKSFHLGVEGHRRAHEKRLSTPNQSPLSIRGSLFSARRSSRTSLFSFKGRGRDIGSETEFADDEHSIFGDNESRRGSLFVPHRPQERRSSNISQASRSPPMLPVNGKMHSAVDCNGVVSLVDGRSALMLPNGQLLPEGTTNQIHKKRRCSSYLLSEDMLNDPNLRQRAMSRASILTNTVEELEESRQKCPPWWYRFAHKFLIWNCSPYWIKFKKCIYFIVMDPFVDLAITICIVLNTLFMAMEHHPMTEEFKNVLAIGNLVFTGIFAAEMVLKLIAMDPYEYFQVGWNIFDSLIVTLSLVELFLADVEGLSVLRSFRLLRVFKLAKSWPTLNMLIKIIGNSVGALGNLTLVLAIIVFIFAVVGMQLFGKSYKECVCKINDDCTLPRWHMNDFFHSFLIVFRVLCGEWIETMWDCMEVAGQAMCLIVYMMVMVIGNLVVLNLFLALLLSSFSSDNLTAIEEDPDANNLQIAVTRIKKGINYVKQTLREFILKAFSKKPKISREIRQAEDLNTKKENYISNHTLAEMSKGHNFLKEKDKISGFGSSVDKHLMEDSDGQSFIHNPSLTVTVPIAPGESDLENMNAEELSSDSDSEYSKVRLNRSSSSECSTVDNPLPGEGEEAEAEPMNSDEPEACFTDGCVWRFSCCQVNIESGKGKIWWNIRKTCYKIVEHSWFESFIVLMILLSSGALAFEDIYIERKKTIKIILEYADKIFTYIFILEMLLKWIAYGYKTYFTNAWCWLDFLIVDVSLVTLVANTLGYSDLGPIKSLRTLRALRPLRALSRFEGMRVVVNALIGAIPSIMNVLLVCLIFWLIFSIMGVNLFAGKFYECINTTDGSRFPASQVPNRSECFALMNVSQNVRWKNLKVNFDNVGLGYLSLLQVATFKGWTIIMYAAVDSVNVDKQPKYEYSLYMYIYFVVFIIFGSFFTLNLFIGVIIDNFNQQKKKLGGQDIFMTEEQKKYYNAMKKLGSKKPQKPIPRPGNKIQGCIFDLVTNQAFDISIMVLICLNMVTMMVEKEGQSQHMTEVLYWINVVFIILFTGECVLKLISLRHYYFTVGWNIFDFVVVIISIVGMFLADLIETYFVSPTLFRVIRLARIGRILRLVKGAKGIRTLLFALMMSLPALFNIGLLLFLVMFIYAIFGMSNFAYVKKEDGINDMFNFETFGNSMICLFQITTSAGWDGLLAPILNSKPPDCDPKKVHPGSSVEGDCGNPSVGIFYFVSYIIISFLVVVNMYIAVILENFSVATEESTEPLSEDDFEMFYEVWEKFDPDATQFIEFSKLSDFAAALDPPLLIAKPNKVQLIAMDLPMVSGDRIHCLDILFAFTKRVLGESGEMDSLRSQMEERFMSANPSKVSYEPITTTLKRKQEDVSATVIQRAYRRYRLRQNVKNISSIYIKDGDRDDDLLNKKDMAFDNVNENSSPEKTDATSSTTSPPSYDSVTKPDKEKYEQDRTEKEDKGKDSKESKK
# assay-explanation: FLIPR or FLIPR TETRA sodium dye assay for sodium channel blocking activity
# Format: cell-based
# measurement-conditions: recombinant HEK293 cells expressing human Nav1.7
Provide the reading as a plain figure in µM.

Enter measured IC50, system human Nav1.7 (Homo sapiens (Human)), for the compound shown: O=C(Nc1ccc(C(F)(F)F)cc1)c1cccc(-c2ccc3[nH]ccc3c2)n1
0.233

Enter measured IC50, system human Nav1.7 (Homo sapiens (Human)), for the compound shown: CC(C)Cn1ccc2cc(-c3cccc(S(=O)(=O)Nc4ncns4)n3)ccc21
0.514

Enter measured IC50, system human Nav1.7 (Homo sapiens (Human)), for the compound shown: CC(C)Cn1ccc2cc(-c3cccc([C@H](O)[C@@H](O)C(N)=O)n3)ccc21 [Compound 150]
1.38

Enter measured IC50, system human Nav1.7 (Homo sapiens (Human)), for the compound shown: CC(C)Cn1ccc2cc(-c3cccc(C(N)=O)n3)ccc21
0.308

* * *

# system: UniProt:Q15858
# assay-explanation: FLIPR or FLIPR TETRA sodium dye assay for sodium channel blocking activity
# Assay type: cell-based
# measurement-conditions: recombinant HEK293 cells expressing human Nav1.7
recorded-metric: IC50 (µM)
Provide the reading as a plain figure in µM.

Please list IC50 recorded for the molecule NC(=O)c1cc([C@@H](O)CO)cc(-c2ccc3c(ccn3Cc3ccc(C(F)(F)F)cc3)c2)n1
1.91

Please list IC50 recorded for the molecule OC[C@@H](O)c1cccc(-c2cnc3c(ccn3Cc3ccc(C(F)(F)F)cc3)c2)n1
1.33

Please list IC50 recorded for the molecule NC(=O)c1cccc(-c2ccc3c(ccn3CCC3CCCCC3)c2)n1
1.12

* * *

Kindly supply the reported IC50 values for the records listed here.
# system: UniProt:Q15858
# assay-explanation: FLIPR or FLIPR TETRA sodium dye assay for sodium channel blocking activity
# Assay type: cell-based
# measurement-conditions: recombinant HEK293 cells expressing human Nav1.7

Please list IC50 recorded for the compound OC[C@@H](O)c1cccc(-c2ccc3nn(Cc4ccc(C(F)(F)F)cc4)cc3c2)n1
4.68 µM

Please list IC50 recorded for the compound NC(=O)c1cccc(-c2ccc3c(cnn3Cc3ccc(C(F)(F)F)cc3)c2)n1
0.897 µM

Please list IC50 recorded for the compound NC(=O)c1cccc(-c2ccc3c(ccn3Cc3ccc(F)cc3)c2)n1
0.801 µM

Please list IC50 recorded for the compound COc1ccc(-c2nc3cc(-c4nc(N[C@H]5CCNC5=O)cc(C(N)=O)n4)ccc3n2-c2ccc(F)cc2)c(OC)c1
2.02 µM

Please list IC50 recorded for the compound CC(C)Cn1ccc2cc(-c3cc([C@H](O)CO)cc(C(N)=O)n3)ccc21
4.92 µM

Please list IC50 recorded for the compound NC(=O)[C@H](O)[C@@H](O)c1cccc(-c2ccc3c(ccn3CC3CCCCC3)c2)n1
0.402 µM

Please list IC50 recorded for the compound NC(=O)c1cccc(-c2ccc3c(c2)c(CN[C@H]2CCNC2=O)cn3Cc2ccc(C(F)(F)F)cc2)n1
2.54 µM

Please list IC50 recorded for the compound NC(=O)c1cccc(-c2ccc3c(c2)c(C(N)=O)cn3Cc2ccc(C(F)(F)F)cc2)n1
> 20 µM

Please list IC50 recorded for the compound NC(=O)c1cccc(-c2ccc3[nH]ccc3c2)n1 [Compound 29, 6-(1H-indol-5-yl)picolinamide]
> 20 µM

Please list IC50 recorded for the compound Cc1noc(C)c1Cn1ccc2cc(-c3cccc(C(N)=O)n3)ccc21
5.55 µM

Please list IC50 recorded for the compound NC(=O)c1cccc(-c2ccc3c(c2)c(CN[C@H]2CCNC2=O)cn3CC2CCCCC2)n1
10 to 20 µM

Please list IC50 recorded for the compound C[C@H](Nc1cc(C(=O)Nc2ccc(C(F)(F)F)cc2)nc(-c2ccc3[nH]ccc3c2)n1)C(N)=O
> 20 µM

Please list IC50 recorded for the compound Cn1ccc2cc(-c3cccc(C(=O)Nc4ccc(C(F)(F)F)cc4)n3)ccc21
3.03 µM

Please list IC50 recorded for the compound O=S(=O)(N1CCCCC1)n1ccc2cc(-c3cccc([C@H](O)CO)n3)ccc21
0.716 µM

Please list IC50 recorded for the compound NC(=O)c1cccc(-c2ccc3c(ccn3Cc3ccc(C(F)(F)F)cc3)c2)n1
0.23 µM

Please list IC50 recorded for the compound NC(=O)c1cccc(-c2ccc3c(ccn3S(=O)(=O)C3CCCCC3)c2)n1
0.927 µM

meta.source: patent US10730866B2
